- assayedTarget: recombinant human NK3 receptor (Homo sapiens, UniProt P29371)
- Construct: expressed in transfected cells; host or cells: HEK293 cells, transient expression; membranes
- Sequence (P29371 whole entry): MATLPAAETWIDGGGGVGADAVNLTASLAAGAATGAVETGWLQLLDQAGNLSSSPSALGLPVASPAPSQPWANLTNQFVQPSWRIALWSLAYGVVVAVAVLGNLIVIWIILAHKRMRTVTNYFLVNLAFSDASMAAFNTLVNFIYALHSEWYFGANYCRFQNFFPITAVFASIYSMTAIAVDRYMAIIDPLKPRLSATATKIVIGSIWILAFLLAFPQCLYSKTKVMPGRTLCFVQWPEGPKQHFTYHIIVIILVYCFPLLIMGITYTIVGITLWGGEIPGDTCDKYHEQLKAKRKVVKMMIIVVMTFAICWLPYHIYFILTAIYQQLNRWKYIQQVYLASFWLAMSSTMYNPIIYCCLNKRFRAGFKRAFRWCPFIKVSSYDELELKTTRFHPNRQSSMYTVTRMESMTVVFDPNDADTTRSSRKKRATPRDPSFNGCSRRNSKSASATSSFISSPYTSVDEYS
- methodNotes: [3H]SR142801 competition binding assay
propertyLabel: pKi
Numbers only, as −log10 of the molar value.

Would you please look over these solved cases?
- compound: "CN(C(=O)OCCCC(F)(F)F)[C@@H]1CN(C(=O)C2CCN(c3ccc(C#N)cn3)CC2)C[C@H]1c1ccc(Cl)cc1"
  pKi: 8.40
- compound: "CCC(=O)N1CCC(C(=O)N2C[C@@H](N(C)C(=O)Oc3ccc(F)cc3)[C@H](c3ccc(Cl)cc3)C2)C1 (stereo partly drawn)"
  pKi: 8.08
- compound: "CN(C(=O)Oc1ccncc1)[C@@H]1CN(C(=O)C2CCN(C(=O)C3(C)CC3)CC2)C[C@H]1c1ccc(Cl)c(Cl)c1"
  pKi: 8.23
- compound: "COc1ccc(OC(=O)N(C)[C@H]2CN(C(=O)C3CCN(CC4CC4)CC3)C[C@@H]2c2ccc(Cl)c(Cl)c2)cc1 [Example 20]"
  pKi: 7.14
- compound: "CN(C(=O)Oc1ccc(F)cc1)[C@@H]1CN(C(=O)C2CCN(c3ncc(C(F)(F)F)cc3Cl)CC2)C[C@H]1c1ccc(Cl)cc1"
  pKi: 7.84

Req: Specify measured pKi for CN(C(=O)Oc1ccc(F)cc1)[C@@H]1CN(C(=O)C2CCN(c3ccc(C#N)cn3)CC2)C[C@H]1c1ccc(F)cc1 .
Resp: 9.00
